Molecular target: pooled human IgG
Value Kind: Enzyme Activity Endpoint Assay (purified): scIgG (ng/µL)
One number for each entry, in ng/µL.

Examples with answers:
1) PRT-152 (protein) MANQEIRYSEVTPYHVTSVWTKGVTPPANFTQGEDVFHAPYVANQGWYDITKTFNGKDDLLCGAATAGNMLHWWFDQNKTQIERYLKKHPEKQKINFNGEQMFDVKEAIDTKNHQLDSKLFEYFKEKAFPYLSTKHLGVFPDHVIDMFINGYRLSLTNHGPTPVKEGSKDPRGGIFDAVFTRGDQSKLLTSRHDFKEKNLKEISDLIKKELTEGKALGLSHTYANVRINHVINLWGADFDSNGNLKAIYVTDSDSNASIGMKKYFVGVNSAGKVAISAKEIKEDNIGAQVLGLFTLSTGKDSWEKTN; 0
2) PRT-612 (protein) MQITSVWTKGVTPLTPEQFRYNNEDVIHAPYLAHQGWYDITKAFDGKDNLLCGAATAGNMLHWWFDQNKTEIEAYLSKHPEKQKIIFNNQELFDLRAAINSKDSQTNSQLFNYFRDKAFPNLSARQLGVMPDLVLDMFINGYYLNVFKTQSTDVNRPYQDKDKRGGIFDAVFTRGDQTTLLTARHDLKNKGLNDISTIIKQELTEGRALALSHTYANVSISHVINLWGADFNAEGNLEAIYVTDSDANASIGMKKYFVGINAHGHVAISAKKIEGENIGAQVLGLFTLSSGKDIWQKLSLEHHHHHH; 0
3) PRT-151 (protein) MANQEIRYSEVTPYHVTSVWTKGVTPPANFTQGEDVFHAPYVANQGWYDITKTFNGKDDLLCGAATAGNMLHWWFDQNKDQIKRYLEEHPDKQKINFNGEQMFDVKEAIDTKNHQLDSKLFEYFKEKAFPYLSTKHLGVFPDHVIDMFINGYRLSLTNHGPTPVKRQTKDPRGGIFDAVFGRGDSTKLLTSRHDFKEKNLKEISDLIKKELTEGKALGLSHTYANVRINHVINLWGADFDSNGNLKAIYVTDSDSNASIGMKKYFVGVNSAGKVAISAKEIKEDNIGAQVLGLFTLSTGQKSWNKTN; 0

Give its Enzyme Activity Endpoint Assay (purified): scIgG value. Item: PRT-629 (protein) MQITSVWTKGVTPLTPEQFRYNNEDVIHAPYLAHQGWYDITKAFDGKDNLLCGAATAGNMLHWWFDQNKEEIEAYLKKYPEKQKIIFNNQELFDLKAAIDTKDSQTNSQLFNYFRDKAFPNLSARQLGVMPDLVLDMFINGYYLNVFKTQSTDVNRPYQDKDKRGGIFDAVFTRGDQTTLLTARHDLKNKGLNDISTIIKQELTEGRALALSHTYANVSISHVINLWGADFNAEGNLEAIYVTDSDANASIGMKKYFVGINAHGHVAISAKKIEGENIGAQVLGLFTLSSGKEIWQKLSLEHHHHHH 461
